TEST DESCRIPTION: Plasma pharmacokinetics, noncompartmental analysis
Format: in vivo
ASSAY SETUP: human, po, 4 mg
OBSERVED PROPERTY: Cmax (ng/mL)

MOLECULE: OC(CCN1CCCCC1)(c1ccccc1)C1CC2C=CC1C2 (stereo not shown) [biperiden]
RESULT: 7.45
